Data credit: paper PMC11524583

- assay-procedure: In vitro BBB permeability study (Papp), triple co-culture BBB model
- condition-info: human, Papp Mean, Triple group; mean of 4; Figure 2R
observable: Papp A→B at 30 min (×10⁻⁶ cm/s)
Give the value, in units of ×10⁻⁶ cm/s, as a plain number.

Name the recorded Papp A→B at 30 min for O=C1OC2(c3ccc(O)cc3Oc3cc(O)ccc32)c2ccccc21 [fluorescein, fluorescein sodium] .
25

* * *

- assay-procedure: In vitro BBB permeability study (Papp), hCMEC/D3 mono-culture BBB model
- condition-info: human, Papp(cm/s), Figure 2N; group GDNF; individual replicates
observable: Papp A→B at 30 min (×10⁻⁶ cm/s)
Give the value, in units of ×10⁻⁶ cm/s, as a plain number.

Name the recorded Papp A→B at 30 min for O=C1OC2(c3ccc(O)cc3Oc3cc(O)ccc32)c2ccccc21 [fluorescein, fluorescein sodium] .
19.4

* * *

- assay-procedure: In vitro BBB permeability study (Papp), hCMEC/D3 mono-culture BBB model
- condition-info: human, Papp(cm/s), Figure 2N; group GDNF+SPP; individual replicates
observable: Papp A→B at 30 min (×10⁻⁶ cm/s)
Give the value, in units of ×10⁻⁶ cm/s, as a plain number.

Name the recorded Papp A→B at 30 min for O=C1OC2(c3ccc(O)cc3Oc3cc(O)ccc32)c2ccccc21 [fluorescein, fluorescein sodium] .
26.5

* * *

- assay-procedure: In vitro BBB permeability study (Papp), hCMEC/D3 mono-culture BBB model
- condition-info: human, Papp(cm/s), group hCEMC/D3 mono-culture, Figure 1F; single replicate
observable: Papp A→B at 30 min

Name the recorded Papp A→B at 30 min for O=C1OC2(c3ccc(O)cc3Oc3cc(O)ccc32)c2ccccc21 [fluorescein, fluorescein sodium] .
36.2 ×10⁻⁶ cm/s

* * *

- System: VE-cadherin
- assay-procedure: Western blot of VE-cadherin expression in hCMEC/D3 cells
- Format: cell-based, Homo sapiens
- condition-info: hCMEC/D3 cells, 200 pg/ml GDNF; 3 μM SPP-86, 5 μM PP2, 3 μM LY294002, 2 μM U0126, 5 μM SP600125, 2 μM SB203580; anti-GDNF antibody 0.25, 0.5, 1.0 μg/ml
observable: GDNF-induced VE-cadherin expression

O=c1cc(N2CCOCC2)oc2c(-c3ccccc3)cccc12 [LY294002, reference compound]    significantly suppressed
C[S+]([O-])c1ccc(-c2nc(-c3ccncc3)c(-c3ccc(F)cc3)[nH]2)cc1 (centres unmarked) [SB203580, reference compound]    almost no effect
N#CC(=C(/N)Sc1ccccc1N)/C(C#N)=C(/N)Sc1ccccc1N [U0126, reference compound]    significantly suppressed
Oc1c2ccccc2c2c3c(cccc13)N=N2 [SP600125, reference compound]    almost no effect

* * *

- assay-procedure: In vitro BBB permeability study (Papp), hCMEC/D3 mono-culture BBB model
- condition-info: human, Papp Mean, Mono group; mean of 4; Figure 2R
observable: Papp A→B at 30 min (×10⁻⁶ cm/s)
Give the value, in units of ×10⁻⁶ cm/s, as a plain number.

Name the recorded Papp A→B at 30 min for O=C1OC2(c3ccc(O)cc3Oc3cc(O)ccc32)c2ccccc21 [fluorescein, fluorescein sodium] .
31.8

* * *

- assay-procedure: in vitro
- condition-info: human, Papp, Triple
observable: Papp A→B at 30 min (nm/s)
Give the value, in units of nm/s, as a plain number.

Name the recorded Papp A→B at 30 min for CN1CCN2c3ncccc3Cc3ccccc3C2C1 (stereo not drawn) [Mirtazapine] .
179

Name the recorded Papp A→B at 30 min for CC(NC(C)(C)C)C(=O)c1cccc(Cl)c1 (stereo not drawn) [Bupropion] .
113

Name the recorded Papp A→B at 30 min for NC12CC3CC(CC(C3)C1)C2 [Amantadine] .
36.4

Name the recorded Papp A→B at 30 min for CN1CCN(C2=Nc3cc(Cl)ccc3Nc3ccccc32)CC1 [Clozapine] .
129

Name the recorded Papp A→B at 30 min for CN(C)CCC=C1c2ccccc2CCc2ccccc21 [Amitriptyline] .
146

Name the recorded Papp A→B at 30 min for NC(=O)N1c2ccccc2C=Cc2ccccc21 [Carbamazepine] .
117
